target: S. pyogenes SKKanGAS, kanamycin survival, BacTiterGlo, 6 h; assay: S. pyogenes SKKanGAS kanamycin growth inhibitors – SKKanGAS strain, luminescence, dose confirmation, streptokinase promoter inhibitor project, dose response (AID 1902);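 also: lower survival reflects blocked streptokinase promoter driving kanamycin resistance gene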
Activity calls are given as the source filed them.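 The calls were made as follows: active = EC50 no more than a set limit of log units above the highest dose; inactive = the rest.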
# output must be one of active, inactive

Use these answered entries as a reference point.
compound | group
COc1ccc(OCC(=O)NNC(=S)NC(=O)C2CC2)cc1 | active
CCC(CO)Nc1ncnc2c1cnn2-c1ccc(OC)cc1 (stereo not given) | inactive
CC(C)[C@H](NC(=O)N1CC(=O)Nc2ccccc21)C(=O)N[C@@H](Cc1ccccc1)C(=O)O | inactive
CCCc1cc(C(=O)Nc2ccc(C(=O)c3ccc(F)cc3)cc2)n(C)n1 | inactive
Cc1oc(-c2ccccc2Cl)nc1Cn1cccc1C1=NC(c2ccccc2)CO1 (stereo not given) | inactive

query: Assay result, entry N#CC(C(=O)C12CC3CC(CC(C3)C1)C2)c1nc2ccccc2[nH]1 (stereo not given) — outcome?
result: active

---

molecular target: S. pyogenes SKKanGAS, kanamycin survival, BacTiterGlo, 6 h; test: S. pyogenes SKKanGAS kanamycin growth inhibitors – SKKanGAS strain, luminescence, dose confirmation, streptokinase promoter inhibitor project, dose response (AID 1902);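 active = EC50 no more than a set limit of log units above the highest dose; inactive = the rest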
# output must be one of 1 (yes) for active, 0 (no) for inactive

Use these answered entries as a reference point.
molecule | group
Cc1n[nH]c(C)c1CCCOc1ccccc1 | 1 (yes)
Cc1ccc(N(C)S(=O)(=O)c2cccc(C(=O)Nc3nc4ccccc4[nH]3)c2)cc1 | 1 (yes)
C/C(=N\Nc1ccc(Cl)c(Cl)c1)c1ccc(-n2ccnc2)cc1 | 1 (yes)
CC1(C)N=C(N)NC(Nc2ccccc2)=N1 | 1 (yes)
COc1ccc(CC(=O)NC(=S)NNC(=O)COc2c(C)cccc2C)cc1 | 1 (yes)
Oc1cccc2ccc(/C=C/c3ccc(Br)s3)nc12 | 1 (yes)
Clc1ccc2nc(-c3ccccn3)c(Nc3ccc4c(c3)OCO4)n2c1 | 1 (yes)
CCCCCCCn1c(NC(=O)CC)nc2ccccc21 | 1 (yes)

query: Assay result, entry COc1ccc(C(=O)N/N=C/c2cc(Br)ccc2O)cc1OC — outcome?
result: 1 (yes)

query: Assay result, entry CN(c1ccccc1)S(=O)(=O)c1ccc(C(=O)Nc2nnc(-c3ccc(F)cc3)o2)cc1 — outcome?
result: 1 (yes)

---

target: S. pyogenes SKKanGAS, kanamycin survival, BacTiterGlo, 6 h; assay: S. pyogenes SKKanGAS kanamycin growth inhibitors – SKKanGAS strain, luminescence, dose confirmation, streptokinase promoter inhibitor project, dose response (AID 1902)
property label: pEC50
One number for each entry, as −log10 of the molar value.

Known results for molecules:
molecule | property label | assay result
O=S(=O)(N[C@H]1C[C@@H](NS(=O)(=O)OCC(Cl)(Cl)Cl)C2CCCCC21)OCC(Cl)(Cl)Cl (stereo not given in full) | pEC50 | 5.73
O=C(N/N=C/c1ccc(-c2ccc(Cl)c(C(=O)O)c2)o1)c1cc2c(ccc3ccccc32)o1 | pEC50 | 5.39

Can you give me pEC50 for all of these, one by one?
1. CCN1/C(=C/c2ccc3cc(C)ccc3[n+]2CC)Sc2ccc3sccc3c21
2. Cn1ncc2c(Nc3ccc(Cl)c(Cl)c3)ncnc21

result:
[5.63, 5.32]

Entry under test: CCOc1cc(/C=C2\C(=O)N(c3nc(-c4ccc(Br)cc4)cs3)N=C2c2ccccc2)ccc1O . Its pEC50 was 5.75

---

molecular target: S. pyogenes SKKanGAS, kanamycin survival, BacTiterGlo, 6 h; assay: S. pyogenes SKKanGAS kanamycin growth inhibitors – SKKanGAS strain, luminescence, dose confirmation, streptokinase promoter inhibitor project, dose response (AID 1902)
Calls of active or inactive are those of the source.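 The calls were made as follows: active = EC50 no more than a set limit of log units above the highest dose; inactive = the rest.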
# output must be one of class 1 (active), class 0 (inactive)

query: Assay result, entry O=C(NCc1ccccn1)C(=O)Nc1nc(C23CC4CC(CC(C4)C2)C3)cs1 — outcome?
result: class 1

query: Assay result, entry CCc1ccc(/C=C/C(=O)c2cc(Br)ccc(=O)c2O)cc1 — outcome?
result: class 1

query: Assay result, entry O=C(CNc1cccc2ccccc12)N/N=C/c1ccc[nH]1 — outcome?
result: class 0

---

target: S. pyogenes SKKanGAS, kanamycin survival, BacTiterGlo, 6 h; test: S. pyogenes SKKanGAS kanamycin growth inhibitors – SKKanGAS strain, luminescence, dose confirmation, streptokinase promoter inhibitor project, dose response (AID 1902)
Activity calls are given as the source filed them.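 The calls were made as follows: active = EC50 no more than a set limit of log units above the highest dose; inactive = the rest.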
# output must be one of active, inactive

Use these answered entries as a reference point.
substance smiles | group
CC(C)(C)Nc1nc(-c2ccccn2)nc2ccccc12 | active
O=c1cc(-c2ccccc2Cl)oc2ccc([N+](=O)[O-])c(O)c12 | active
O=C(Cn1sc2ccccc2c1=O)NC12CC3CC(CC(C3)C1)C2 | active
CCN(CC)CCN(C(=O)C1=COCCO1)c1nc2cc(C)cc(C)c2s1 | inactive
CCOC(=O)c1cnn(-c2nc(-c3ccccc3)cs2)c1C(F)(F)F | active

query: Assay result, entry O=[N+]([O-])c1ccc(/C=[N+](\[O-])CCO)o1 — outcome?
result: active

---

molecular target: S. pyogenes SKKanGAS, kanamycin survival, BacTiterGlo, 6 h; test: S. pyogenes SKKanGAS kanamycin growth inhibitors – SKKanGAS strain, luminescence, dose confirmation, streptokinase promoter inhibitor project, dose response (AID 1902);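 also: lower survival reflects blocked streptokinase promoter driving kanamycin resistance gene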
The source made the active and inactive calls.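 The calls were made as follows: active = EC50 no more than a set limit of log units above the highest dose; inactive = the rest.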
# output must be one of TRUE = active, FALSE = inactive

molecule | assayed target | group
CCn1c(=O)c(C(=O)NNC(=O)Cc2ccccc2)c(O)c2ccccc21 | S. pyogenes SKKanGAS, kanamycin survival, BacTiterGlo, 6 h | TRUE
CO[C@H]1C=CO[C@@]2(C)Oc3c(C)c(O)c4c(O)c(c(C=NN5CCN(C)CC5)c(O)c4c3C2=O)NC(=O)C(C)=CC=C[C@H](C)[C@H](O)[C@@H](C)[C@@H](O)[C@@H](C)[C@H](OC(C)=O)[C@@H]1C | S. pyogenes SKKanGAS, kanamycin survival, BacTiterGlo, 6 h | TRUE
C=CCN1C(=O)/C(=C/c2ccc(OC(C)=O)c(OCC)c2[N+](=O)[O-])SC1=S | S. pyogenes SKKanGAS, kanamycin survival, BacTiterGlo, 6 h | TRUE
CCCCn1c(O)c(C(CC)=Nc2ccc3c(c2)CCC3)c(=O)[nH]c1=O | S. pyogenes SKKanGAS, kanamycin survival, BacTiterGlo, 6 h | TRUE
COc1ccccc1N=C1NC(=O)/C(=C/c2ccc(N(C)C)cc2)S1 | S. pyogenes SKKanGAS, kanamycin survival, BacTiterGlo, 6 h | TRUE
COc1ccc(CCN2CC(C(=O)NCCc3ccccn3)CCC2=O)cc1 (centres undefined) | S. pyogenes SKKanGAS, kanamycin survival, BacTiterGlo, 6 h | FALSE
Oc1c(CN2CCN(c3ccccc3)CC2)cc(Br)c2cccnc12 | S. pyogenes SKKanGAS, kanamycin survival, BacTiterGlo, 6 h | TRUE
COc1ccccc1C(=O)NNC(=S)NC(=O)c1cc(OC)c(OC)c(OC)c1 | S. pyogenes SKKanGAS, kanamycin survival, BacTiterGlo, 6 h | TRUE

For the next question, use this molecule.
query: Assay result, entry C/C(=N\N=C(/N)SC1CC(=O)N(c2ccc(Cl)c(Cl)c2)C1=O)c1cccs1 (centres undefined) — outcome?
result: TRUE

---

target: S. pyogenes SKKanGAS, kanamycin survival, BacTiterGlo, 6 h; experiment: S. pyogenes SKKanGAS kanamycin growth inhibitors – SKKanGAS strain, luminescence, dose confirmation, streptokinase promoter inhibitor project, dose response (AID 1902);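 active = EC50 no more than a set limit of log units above the highest dose; inactive = the rest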;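 also: lower survival reflects blocked streptokinase promoter driving kanamycin resistance gene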
# output must be one of t = active, f = inactive

compound | assayed target | group
CCOc1ccc(-c2nnc3ccc(SC(C)C)nn23)cc1 | S. pyogenes SKKanGAS, kanamycin survival, BacTiterGlo, 6 h | t

For the next question, use this compound.
query: Assay result, entry Cc1cc(C)nc(SCC(=O)NC2=NN=C(c3ccc(Br)cc3)CS2)n1 — outcome?
result: t

---

biological target: S. pyogenes SKKanGAS, kanamycin survival, BacTiterGlo, 6 h; test: S. pyogenes SKKanGAS kanamycin growth inhibitors – SKKanGAS strain, luminescence, dose confirmation, streptokinase promoter inhibitor project, dose response (AID 1902);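 also: lower survival reflects blocked streptokinase promoter driving kanamycin resistance gene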
Active and inactive are the calls of the source.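 How the source made its calls: active means EC50 no more than a set limit of log units above the highest dose; inactive means the rest.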
# output must be one of active, inactive

Use these answered entries as a reference point.
compound | assayed target | group
Cc1ccc(NC(=S)NC(=O)c2ccc(-c3ccc(Cl)cc3)o2)c(O)c1 | S. pyogenes SKKanGAS, kanamycin survival, BacTiterGlo, 6 h | active
O=c1ccc(N=Nc2ccccc2)ccc1O | S. pyogenes SKKanGAS, kanamycin survival, BacTiterGlo, 6 h | active
Cc1cc(=O)oc2c3c(cc(OCC(=O)NC4CC4)c12)OC(C)(C)CC3 | S. pyogenes SKKanGAS, kanamycin survival, BacTiterGlo, 6 h | inactive
O=C(N/N=C/c1ccccc1O)c1ccc2c(c1)OCO2 | S. pyogenes SKKanGAS, kanamycin survival, BacTiterGlo, 6 h | active
CN(C)[C@@H]1C(=O)C(C(N)=O)=C(O)[C@@]2(O)C(=O)C3=C(O)c4c(O)cccc4[C@@](C)(O)C3C[C@@H]12 (stereo not given in full) | S. pyogenes SKKanGAS, kanamycin survival, BacTiterGlo, 6 h | active
O=C(NC(NC(=S)Nc1c(Cl)cc(Cl)cc1Cl)C(Cl)(Cl)Cl)OCc1ccccc1 (stereo not given) | S. pyogenes SKKanGAS, kanamycin survival, BacTiterGlo, 6 h | active
COc1cc(NS(=O)(=O)c2ccc(C)cc2)c2ncccc2c1 | S. pyogenes SKKanGAS, kanamycin survival, BacTiterGlo, 6 h | active
O=[N+]([O-])c1ccc(O)c(-c2nc(-c3ccccc3)c(-c3cccs3)[nH]2)c1 | S. pyogenes SKKanGAS, kanamycin survival, BacTiterGlo, 6 h | active
Cc1ccc(S(=O)(=O)Nc2cc(Cl)c(O)c3ncccc23)cc1 | S. pyogenes SKKanGAS, kanamycin survival, BacTiterGlo, 6 h | active

For the next question, use this compound.
query: Assay result, entry COc1c(N2CCN(C(=S)Nc3ccccc3F)C(C)C2)c(F)cc2c(=O)c(C(=O)O)cn(C3CC3)c12 (stereo not given) — outcome?
result: active
